- Tested on: femoral artery blood flow
- experiment: Blood flow-increasing action (average femoral artery blood flow after intraarterial injection, relative to papaverine)
- Type: in vivo, mongrel dogs
- recorded.conditions: anesthetized dogs, dose 0.03, 0.003 or 0.0003 mg/kg, papaverine 0.03 mg/kg = 1.00
- Procedure: The blood flow at a femoral artery is measured by each of four male and female mongrel dogs weighing from 10 to 14 kg. That is, each subject is anesthetized by injecting intravenously 30 mg/kg of pentobarbital and one side femoral artery is exposed. […] Intraarterial injection of 0.1 ml of the sample is then made and the average blood flow is measured. […]
Note to self: values exactly at 200 are yes (1). So Specific activity (blood flow increase relative to papaverine = 1) at or above 200 is yes (1), below is no (0).

Past entries and their recorded results:
[[record]]
compound = "COc1ccccc1N1CCN(CCCn2c(=O)c3c(ncn3C)n(C)c2=O)CC1"
measured_target = "femoral artery blood flow"
assigned_category = "no (0)"

[[record]]
compound = "COc1ccccc1N1CCN(CCn2c(=O)c3c(ncn3C)n(C)c2=O)CC1"
measured_target = "femoral artery blood flow"
assigned_category = "no (0)"


Query string: Kindly determine if Specific activity (blood flow increase relative to papaverine = 1) recorded for COc1ccc(Cc2nccc3cc(OC)c(OC)cc23)cc1OC [Papaverine, reference compound] is above or exactly 200.
Result string: no (0)

Query string: Kindly determine if Specific activity (blood flow increase relative to papaverine = 1) recorded for COc1ccccc1N1CCN(CCCCCCn2c(=O)c3c(ncn3C)n(C)c2=O)CC1 is above or exactly 200.
Result string: yes (1)

Query string: Kindly determine if Specific activity (blood flow increase relative to papaverine = 1) recorded for Cn1cnc2c1c(=O)n(CCCCCN1CCN(c3ccccc3)CC1)c(=O)n2C is above or exactly 200.
Result string: yes (1)
